- assay_overview: folding stability dG unfold from chymotrypsin proteolysis; higher = more stable
attribute_measured: folding stability dG unfold (kcal/mol)
Value expressed in kcal/mol; do not type the unit.

Suppose we examine the sequence SAGGSAGGSAGGSMIVVPVTSNEVVDNLGGPVTVPAGTVIIIERTENSVKVEVLPPEKLSAGGSAGGSAGGS [r10_353_JUSTAS] ; what folding stability dG unfold value has been reported?
0.353

Suppose we examine the sequence SANDDDWVTVIFEIPIVRKDPDGKPEKHPFRLMVQVHPDGRVEINIMYPNGRPIASQTVPPGQTLEDFISAG [r14_559_TrROS] ; what folding stability dG unfold value has been reported?
3.84

Suppose we examine the sequence SAGGGTTITLSFADGTTKTLTLPGLTEVVEEPGRVVVRADVPERRVVVTFEPATGTITVEEFAPEEPVSAGG [r13_392_JUSTAS] ; what folding stability dG unfold value has been reported?
2.27

Suppose we examine the sequence SMYRIRLPSNKVFTIDVPPDGTVEITLPNGKKLTLKLESEEDILALAEILSKLFPDDPAEIEPIPLEYYRSA [r9_1206_TrMRF] ; what folding stability dG unfold value has been reported?
1.53

Suppose we examine the sequence SAGGSAGGSSYTTSTATDPNADVTTTTTTYPDSIVTPVWDPRTGKVVETVTTTPDGTTTTVAASAGGSAGGS [r12_563_JUSTAS] ; what folding stability dG unfold value has been reported?
0.0262

Suppose we examine the sequence SAGGSAKEVKIKFTRNPDGTLTMEITFEDGYVIRKTFTVKNGKLTEKVEVFPVKLDPETGKLVLLPSAGGSA [r15_746_TrROS_Hall] ; what folding stability dG unfold value has been reported?
2.98

Suppose we examine the sequence SAGGSAGGSAGGMSVTVSREKLPDGSYLVTVTTEVGGGPVTTPYRVPPSLSSAEEVVEKLSAGGSAGGSAGG [r7_75_JUSTAS] ; what folding stability dG unfold value has been reported?
-0.659

Suppose we examine the sequence SAGGSAGGSAQPIPIKIRIRMRDDGKPQTFTFEVPVKPGATESTILDKIMKKFPGFRHIEIESAGGSAGGSA [r18_195_TrROS] ; what folding stability dG unfold value has been reported?
0.961

Suppose we examine the sequence SAGGMTAEEIAEALRERLRELFPPGAEIEVDEIEVEEVEVEEEPVELSEEERERVEKMPEEERERLLSAGGS [r16_272_TrROS_Hall] ; what folding stability dG unfold value has been reported?
-0.0968

Suppose we examine the sequence SAGGSAGGSKLTIMVKMDSAEDAEEEARSLLKELGIKPGMKEVKVSMFPRGNEYYAHVEIKFKSAGGSAGGS [r12_7_TrROS] ; what folding stability dG unfold value has been reported?
0.759

Suppose we examine the sequence SAGNMTNEQLQERIKEAVREDGWPTYRIKMSGPDGKNMNFQVDFPEERRQKIQKELGWDITEVEPRRYSAGG [r19_50_TrROS] ; what folding stability dG unfold value has been reported?
-0.107

Suppose we examine the sequence SAGGSAGGSAGSMTVTLTITDPRNSATTTYTVPSSNYEEFLKANPEIEKNGWTVTVDTNGSAGGSAGGSAGG [r17_176_JUSTAS] ; what folding stability dG unfold value has been reported?
0.903

Suppose we examine the sequence SAGGATPLPDGGYRLTYTVKLSPSESVEDAPKAAAALAEKYGVTPVAITVDPSTGTVTIDILLPPEVRSAGG [r13_178_JUSTAS] ; what folding stability dG unfold value has been reported?
1.68

Suppose we examine the sequence SAGGSAGGSAGGSFKIKDIEVNPDALKKGNFIQIRIENGWVIHINPNGEIEVVELPPDASAGGSAGGSAGGS [r4_373_TrROS] ; what folding stability dG unfold value has been reported?
1.59
